Each entry below lists one item and its recorded melting point value.

Cc1csc(SCc2ccccc2C(=O)O)n1 = 159 to 162 °C
Cc1nc(N)cc(C2CC2)n1 = 159 to 161 °C
O=C(O)c1ccc(F)cc1-c1ccc(Cl)c(Cl)c1 = 179 to 181 °C

Enquiry: Kindly indicate its recorded melting point. Item: "Cc1nn(C)c(C)c1S(N)(=O)=O"
Return: 213 to 215 °C

Enquiry: State its melting point for this compound: "CCS(=O)(=O)c1ccc(NC(=O)CCl)c(O)c1"
Return: 207 to 209 °C

Enquiry: Return value of melting point for input "CC(C)(C)OC(=O)NCc1nnc(-c2cccnc2)[nH]1" , no commentary.
Return: 196 to 198 °C

Enquiry: Specify melting point for COc1cccc(C(N)(C(=O)O)C(F)(F)F)c1 (stereo unspecified) and stop.
Return: 139 to 141 °C

Enquiry: Name the recorded melting point of the compound listed here: CC(N)c1ccc2[nH]c(=O)[nH]c2c1 (stereo unspecified)
Return: 394 to 396 °C

Enquiry: Kindly indicate its recorded melting point. Item: CN(C)C(=O)C1CNc2ccccc2O1 (stereo unspecified)
Return: 90 to 92 °C

Enquiry: Output melting point of "O=C(O)c1ccccc1C(=O)c1cccs1"
Return: 141 to 143 °C

Enquiry: Give the value of melting point reported for the following: "CCOC(=O)c1c(CCCO)cnc2cc(C)nn12"
Return: 76 to 78 °C

Enquiry: Tell me its melting point given "COc1ccc(-c2cncc(C(=O)O)c2)cc1" as the entry.
Return: 278 to 280 °C
